Measured melting point accompanies every entry in the list below.

INSERT INTO assay_data (molecule, test_value) VALUES
  ('O=C(O)CCn1cc(Br)c2c3c(c(-c4ccccc4Cl)cc21)C(=O)NC3=O', '182 to 186 °C');

Task: Consider the molecule `CCOCCOCCn1c(C=O)cc2c3c(c(-c4ccccc4Cl)cc21)C(=O)NC3=O` and give its recorded melting point.
Output: 162 to 165 °C

Task: Consider the molecule `CCOCCOCCn1ccc2c3c(c(-c4ccccc4Cl)cc21)C(=O)NC3=O` and give its recorded melting point.
Output: 173 °C

Task: Consider the molecule `COCCCn1cc(Br)c2c3c(c(-c4ccccc4Cl)cc21)C(=O)NC3=O` and give its recorded melting point.
Output: 149 to 151 °C
